# System: HCT-15 colon
# ASSAY_DETAILS: NCI tumour cell line growth inhibition, 48 h
Catalogue of compounds with associated log10 TGI
ASSAY_METRIC: log10 TGI (log10 of the value in µM)

> print(dat)
                                   compound  result
1  CCN1Cc2c(/C=C/c3ccccc3)nc3ccc(OC)cc3c2N(c2cccc(Cl)c2)C1    0.56
2  COc1ccccc1NC(=O)C1=C(C)NC(C)=C(C(=O)Nc2ccccc2OC)C1c1ccc(C2C(C(=O)Nc3ccccc3OC)=C(C)NC(C)=C2C(=O)Nc2ccccc2OC)cc1    0.87
3        NC(N)=N/N=C/c1c(-c2cccs2)nc2n1CCS2    1.78
4  CN1C(CC(O)c2ccccc2)CCCC1CC(O)(c1ccccc1)c1ccccc1 (stereo not given)    1.54
5  Cc1ccc([N+](=O)[O-])cc1S(=O)(=O)Nc1ccc(C2=NN(C(=O)c3ccccc3)C(c3ccccc3O)C2)cc1 (stereo not given)    1.53
6  O=C1/C(=C/c2ccc([N+](=O)[O-])cc2)Sc2scc(-c3cccc([N+](=O)[O-])c3)[n+]21    0.76
7  CCOC(=O)CCCOc1cc(-c2ccccc2F)nc2cc3c(cc12)OCO3    1.16
8  Cc1nc2sc(C(=O)Nc3cccc(Cl)c3C)c(N)c2cc1C(O)c1ccccc1 (stereo not given)    1.02

====

# Test system: SK-MEL-2 melanoma
# ASSAY_DETAILS: NCI tumour cell line growth inhibition, 48 h
Catalogue of compounds with associated TGI
ASSAY_METRIC: TGI (µM)

> print(dat)
                                smiles.code        target.desc  value.operator  result
1  COC(OC)[C@@H]1OC[C@H](n2ccc(=O)[nH]c2=O)[C@H]1O  SK-MEL-2 melanoma               >     100
2  Nc1ccccc1-n1c2c(c3ccccc3c1=O)C(=O)c1ccccc1-2  SK-MEL-2 melanoma               =    52.8
3  COc1ccc(-n2nc(C(=O)NCC(=O)Nc3nc4cc(OC)ccc4s3)c3ccccc3c2=O)cc1  SK-MEL-2 melanoma               =    5.12
4  Clc1ccc(C2=Cc3nc2c(-c2ccccc2)c2ccc([nH]2)c(-c2ccccc2)c2nc(c(-c4ccccc4)c4ccc([nH]4)c3-c3ccccc3)C=C2)cc1  SK-MEL-2 melanoma               >    62.5

====

Catalogue of compounds with associated TGI
# Test system: MDA-MB-435
# ASSAY_DETAILS: NCI tumour cell line growth inhibition, 48 h
ASSAY_METRIC: TGI

COMPOUND	ASSAY_METRIC	RESULT
CCOC(=O)/C=C(/C(=O)OCC)n1cc(C)c(=O)[nH]c1=O	TGI	10.2 µM
Oc1cc(F)cc2cccnc12	TGI	> 100 µM
O=C1c2ccccc2-c2c1c1ccc3ccccc3c1n2-c1ccccc1	TGI	> 100 µM
Nc1ccc(Cc2ccc(N)c(C(=O)O)c2)cc1C(=O)O	TGI	> 100 µM
O=S(=O)(N1CCCCN(S(=O)(=O)C(F)(F)F)CCCN(S(=O)(=O)C(F)(F)F)CCCCN(S(=O)(=O)C(F)(F)F)CCCN(S(=O)(=O)C(F)(F)F)CCCCN(S(=O)(=O)C(F)(F)F)CCCN(S(=O)(=O)C(F)(F)F)CCCCN(S(=O)(=O)C(F)(F)F)CCC1)C(F)(F)F	TGI	> 31.6 µM
Nc1n[nH]c2cc(F)c([C@@H]3Nc4c(F)cc5[nH]ncc5c4[C@H]4C5CCC(C5)[C@@H]34)cc12 (some centres undefined)	TGI	0.195 µM
C[C@]12O[C@@]3(C)O[C@@]3(C)[C@]3(C)O[C@]3(C)[C@@]1(C)O2	TGI	> 100 µM
CCCCCC/C=C\CCCCCCCCCc1cccc(OC)c1O	TGI	> 100 µM
C=C(C)C1Cc2cc(C(C)=O)ccc2O1 (centres undefined)	TGI	> 100 µM
COC(=O)C1=C(C(=O)OC)N(c2ccncc2)C(c2ccco2)=CC1c1ccccc1[N+](=O)[O-] (centres undefined)	TGI	> 39.8 µM
Oc1c(O)c(Cc2ccccc2)c(Cc2ccccc2)c(Cc2ccccc2)c1Cc1ccccc1	TGI	> 10 µM
O=C(Cn1c2c(c3ccccc31)CCCC2)N1CCOCC1	TGI	> 100 µM
CCOC(=O)/C=C/C1=C(Br)[C@@]2(C)CC[C@@H]3c4ccc(O)cc4CC[C@H]3[C@@H]2C1	TGI	28.8 µM
c1ccc(C[N+]23C(CC[C@H]2c2ccccc2)CC[C@H]3c2ccccc2)cc1 (some centres undefined)	TGI	54.8 µM
O=C(c1ccccc1)N1CCC(Nc2cccnc2)O1 (centres undefined)	TGI	> 100 µM
O=C(Cc1ccc(-c2ccc(OCCN3CCOCC3)cc2)cn1)NCc1ccccc1	TGI	0.0392 µM
c1cc2nnc1SCCSCCCSCCS2	TGI	> 100 µM
COC(=O)[C@]12CC[C@@H](C)[C@H](C)[C@@H]1C1=CC[C@@H]3[C@@]4(C)C(C=O)=C[C@@](C)(COC(=O)c5ccco5)C4=CC[C@@]3(C)[C@]1(C)CC2	TGI	2.96 µM
CS(=O)(=O)Nc1cccc(-c2ccc3ncnc(Nc4cncc(Cl)c4)c3c2)c1	TGI	> 100 µM

====

# System: NCI-H522 lung
# ASSAY_DETAILS: NCI tumour cell line growth inhibition, 48 h
ASSAY_METRIC: TGI (µM)

> print(dat)
                                    compound    target.desc  assay.metric  value.operator    result
 1  CC(=O)Nc1ccc(S(=O)(=O)N/N=C(\C)CN2C(=O)c3ccccc3C2=O)cc1  NCI-H522 lung           TGI               >       100
 2  Nc1ccccc1-n1c2c(c3ccccc3c1=O)C(=O)c1ccccc1-2  NCI-H522 lung           TGI               =      25.6
 3  O=C(Cc1ccc(-c2ccc(OCCN3CCOCC3)cc2)cn1)NCc1ccccc1  NCI-H522 lung           TGI               =    0.0831
 4   COc1cc(NC(=O)c2cc3ccccc3cc2O)c(OC)cc1Cl  NCI-H522 lung           TGI               =      9.41
 5  COc1ccc2c3c([nH]c2c1)[C@H](C=C(C)C)N1C(=O)[C@@H]2CCCN2C(=O)[C@@H]1C3  NCI-H522 lung           TGI               >       100
 6                    NC(=S)NN=C1Cc2ccccc2C1  NCI-H522 lung           TGI               >       100
 7  COc1ccc(N2C(=O)C3c4[nH]c5ccc(OC)cc5c4C4CCC(c5ccccc5)CC4C3C2=O)cc1 (stereo unspecified)  NCI-H522 lung           TGI               =      27.4
 8  COc1ccc(C2S/C(=C\c3ccc([N+](=O)[O-])cc3)C(=O)N2NC(=O)Cc2ccccc2)cc1 (stereo unspecified)  NCI-H522 lung           TGI               >       100
 9  C=CC(=O)N1CCC(CNc2ncnc(N)c2-c2ccc(Oc3ccccc3)cc2)CC1  NCI-H522 lung           TGI               =      32.5
10  c1ccc(C[N+]23C(CC[C@H]2c2ccccc2)CC[C@H]3c2ccccc2)cc1 (stereo partly specified)  NCI-H522 lung           TGI               >       100
11  NCCNc1nc2ccc(F)cc2c2c(=O)c3cc(F)ccc3sc12  NCI-H522 lung           TGI               =      3.38
12           COc1ccc(C#CC2=C(Br)C(=O)OC2)cc1  NCI-H522 lung           TGI               >        50
13  Clc1ccc(C2=Cc3nc2c(-c2ccccc2)c2ccc([nH]2)c(-c2ccccc2)c2nc(c(-c4ccccc4)c4ccc([nH]4)c3-c3ccccc3)C=C2)cc1  NCI-H522 lung           TGI               >      62.5
14                  CC(=S)NC=C(C(N)=O)C(N)=O  NCI-H522 lung           TGI               >       100
15  CS(=O)(=O)Nc1ccc(NCc2cnc3ccc4[nH]cccc4c23)cc1  NCI-H522 lung           TGI               =      42.3
16  COc1ccc(-c2cncn2-c2ccc(-c3nc4cc(OC)c(OC)c(OC)c4s3)cc2)cc1N  NCI-H522 lung           TGI               =      17.5
17  O=C1Nc2cc(-c3ccc(O)cc3)ccc2/C1=C/c1ccc[nH]1  NCI-H522 lung           TGI               >      20.1
18  NC1=C(/C(N)=N/O)C(c2ccccc2)c2ccc3ccccc3c2O1 (stereo unspecified)  NCI-H522 lung           TGI               =      26.7
19  C=CC(=O)OCCCS(=O)(=O)[O-].C=CC(=O)OCCCS(=O)(=O)[O-].NC1CCCCC1N.[Pt+4]  NCI-H522 lung           TGI               >        25
20  CCOC(=O)/C=C(/C(=O)OCC)n1cc(C)c(=O)[nH]c1=O  NCI-H522 lung           TGI               =      2.14
21      OC1CCSc2ccccc21 (stereo unspecified)  NCI-H522 lung           TGI               >       100
22  C#C[C@@H](OC(=O)c1ccc([N+](=O)[O-])cc1)[C@@H]1C[C@H]2O[C@@H]([C@H](C/C=C/CC)OC(=O)c3ccc([N+](=O)[O-])cc3)C[C@H]2O1  NCI-H522 lung           TGI               >       100
23  CN1CCC(n2cnc(-c3ccc(F)cc3)c2-c2ccnc(Nc3ccccc3)n2)CC1  NCI-H522 lung           TGI               >      15.7
24  COc1ccc(-n2nc(C(=O)c3ccccc3)c3nn4c(=O)cc(-c5ccccc5)nc4nc32)cc1  NCI-H522 lung           TGI               =      81.2
25                     c1cc2nnc1SCCSCCCSCCS2  NCI-H522 lung           TGI               >       100
26  CC(C)=CC1(C)/C(=N\O)C(C)(CC(C)C)C(=O)N1O (stereo unspecified)  NCI-H522 lung           TGI               >       100
27  CCOC(=O)c1nc2ccc(C(F)(F)F)cc2nc1NCc1ccc(F)cc1  NCI-H522 lung           TGI               =      88.9
28  COc1ccc(/C=N/NC(=O)CSc2nc(-c3ccccc3)c(-c3ccccc3)[nH]2)cc1OC  NCI-H522 lung           TGI               =      39.9
29        O=C(/C=C/c1cc(O)ccc1O)c1ccc(Cl)cc1  NCI-H522 lung           TGI               >       100
30  O[C@]12c3ccccc3C1CCCC2N1CCOCC1 (stereo partly specified)  NCI-H522 lung           TGI               >       100
31  CCN1Cc2c(/C=C/c3ccccc3)nc3ccc(OC)cc3c2N(c2cccc(Cl)c2)C1  NCI-H522 lung           TGI               =      2.88
32                        Oc1cc(F)cc2cccnc12  NCI-H522 lung           TGI               =      3.16
33  CCCC(=O)Nc1cc(/C=C/C(=O)N2CC(CCl)c3c2cc(OC(C)=O)c2[nH]cc(C)c32)n(C)c1 (stereo unspecified)  NCI-H522 lung           TGI               =  4.26e-05
34  Nc1ncc(-c2ccc3ncnc(N4CCc5cc(F)c(Cl)cc54)c3c2)cc1C(F)(F)F  NCI-H522 lung           TGI               >       100
35  CC(NNC(=S)N1CCN(c2ccccn2)CC1)c1cccc[n+]1[O-] (stereo unspecified)  NCI-H522 lung           TGI               =      15.3
36                 Cc1cccc(/C=N/N=C(\N)NO)n1  NCI-H522 lung           TGI               >       100
37  O=[N+]([O-])c1ccc2nc(/C=C(\O)c3ccccc3)c(NC34CC5CC(CC(C5)C3)C4)nc2c1  NCI-H522 lung           TGI               >        10
38                O=C1CNc2cc(N3CCCCC3)ccc2N1  NCI-H522 lung           TGI               >       100
39    C#CCn1c2c(c3ccccc3c1=O)C(=O)c1ccccc1-2  NCI-H522 lung           TGI               =      42.2
40  OCC(O)C(OC1OC(CO)C(O)C(O)C1O)c1nn(-c2ccc(Cl)cc2)c2nc3cc(Cl)c(Cl)cc3nc12 (stereo unspecified)  NCI-H522 lung           TGI               >       100
41          CNc1cc(Cl)ccc1C(=O)N1CCC[C@H]1CO  NCI-H522 lung           TGI               >       100
